Square brackets hold non-standard residues; d marks the D form. Peptide text beside a SMILES is read from it. * marks the point of attachment. Asu = N[C@@H](CCCCCC(=O)O)C(=O)O; β3hL = CC(C)C[C@H](N)CC(=O)O; Nva = CCC[C@H](N)C(=O)O; NHOH = ON*
The following molecules have recorded pIC50 on Histone deacetylase 2 (Homo sapiens, UniProt Q92769).
Sequence (Q92769 whole entry): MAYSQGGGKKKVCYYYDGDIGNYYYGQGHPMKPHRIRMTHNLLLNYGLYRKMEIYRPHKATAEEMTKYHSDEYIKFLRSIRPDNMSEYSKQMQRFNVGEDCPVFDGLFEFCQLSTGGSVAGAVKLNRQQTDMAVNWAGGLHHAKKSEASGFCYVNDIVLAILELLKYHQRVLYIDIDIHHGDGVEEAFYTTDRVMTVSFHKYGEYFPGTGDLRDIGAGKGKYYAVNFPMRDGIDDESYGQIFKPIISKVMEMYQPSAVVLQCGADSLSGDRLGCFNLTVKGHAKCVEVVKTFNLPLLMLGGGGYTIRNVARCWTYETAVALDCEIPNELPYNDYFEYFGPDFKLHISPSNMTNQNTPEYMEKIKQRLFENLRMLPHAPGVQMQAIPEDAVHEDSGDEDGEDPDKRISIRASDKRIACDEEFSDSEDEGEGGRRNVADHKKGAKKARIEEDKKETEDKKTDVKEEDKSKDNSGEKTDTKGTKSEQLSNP
Please note pIC50 is a logarithmic value: minus log10 of concentration in mol/L. Answer with that number alone.

>>> obs_value("CCC[C@@H]1NC(=O)[C@H](C)NC(=O)C[C@H](CC(C)C)NC(=O)[C@H](Cc2c[nH]c3ccccc23)NC1=O (cyclo(A[Nva]W[β3hL]))")
5.80

Find the recorded pIC50 belonging to CC(C)C[C@H]1CC(=O)N[C@@H](C)C(=O)N[C@@H](CCCCCC(=O)NO)C(=O)N[C@@H](Cc2c[nH]c3ccccc23)C(=O)N1 (cyclo([Asu](NHOH)W[β3hL]A)) and report it. 8.30
